assay: Pharmacokinetic screening in male Wistar rats; details: in vivo, 1 mg/kg, rat, 1.0 mpk iv, read-out: IV PK C0
# maps each entry to its C0

{"columns": ["COMPOUND", "C0"],
 "data": [
  ["C[C@H](CCCOc1ccccc1Cn1c(C(F)(F)F)cnc1-c1ccc(C#N)cc1)CC(=O)O [Compound 2f]", "1820 ng/mL"],
  ["C[C@H](CCCOc1ccccc1Cn1c(Cl)cnc1-c1ccc(C(F)(F)F)cc1)CC(=O)O [Compound 2b]", "2120 ng/mL"],
  ["C[C@H](CCCOc1ccccc1Cn1c(C(F)(F)F)cnc1-c1ccc(C(F)(F)F)cc1)CC(=O)O [Compound 2a]", "1530 ng/mL"]
]}

----------
assay: Pharmacokinetic screening in male CD-1 mice; format: in vivo; settings: male, CD-1, in vivo, 3 mg/kg; mouse, 3.0 mpk po; read-out: Oral PK T½ (converted)

{"columns": ["CPD SMILES", "half-life / h"],
 "data": [
  ["C[C@H](CCCOc1ccccc1Cn1c(C(F)(F)F)cnc1-c1ccc(Cl)cc1)CC(=O)O", 10],
  ["C[C@H](CCCOc1ccccc1Cn1c(C(F)(F)F)cnc1-c1ccc(C#N)cc1)CC(=O)O", 4.9],
  ["C[C@H](CCCOc1ccccc1Cn1c(C(F)(F)F)cnc1-c1ccc(C(F)(F)F)cc1)CC(=O)O", 3.8],
  ["C[C@H](CCCOc1ccccc1Cn1c(Cl)cnc1-c1ccc(C(F)(F)F)cc1)CC(=O)O", 4.3]
]}

----------
# maps each entry to its bioavailability
assay: Pharmacokinetic screening in male Wistar rats; conditions: in vivo, 3 mg/kg, rat, 3.0 mpk po vs 1.0 mpk iv, read-out: Oral PK % F
RESULT TYPE: bioavailability (%)

{"columns": ["CPD SMILES", "RESULT TYPE", "QUANTITY UNIT", "OBS VALUE"],
 "data": [
  ["C[C@H](CCCOc1ccccc1Cn1c(C(F)(F)F)cnc1-c1ccc(C#N)cc1)CC(=O)O", "bioavailability", "%", 100],
  ["C[C@H](CCCOc1ccccc1Cn1c(C(F)(F)F)cnc1-c1ccc(C(F)(F)F)cc1)CC(=O)O", "bioavailability", "%", 100],
  ["C[C@H](CCCOc1ccccc1Cn1c(Cl)cnc1-c1ccc(C(F)(F)F)cc1)CC(=O)O", "bioavailability", "%", 87]
]}
